- PROTOCOL: molar heat capacity at constant pressure
- SETUP_CONDITIONS: 318.15 K; 101.33 kPa; Liquid; Large sample (1 g) DSC
Kindly supply the reported molar heat capacity at constant pressure values for the records listed here.
One number for each entry, in J/K/mol.

Example entries begin here.
COMPOUND: COCC[N+]1(C)CCCC1.O=S(=O)([N-]S(=O)(=O)C(F)(F)F)C(F)(F)F
RECORDED_VALUE: 591.3
//
COMPOUND: CCn1cc[n+](C)c1.O=S(=O)([N-]S(=O)(=O)C(F)(F)F)C(F)(F)F
RECORDED_VALUE: 534.8
//
COMPOUND: CCCCCCOS(=O)(=O)[O-].CC[n+]1ccn(C)c1 [3-ethyl-1-methyl-1H-imidazolium hexyl sulfate]
RECORDED_VALUE: 526
//
COMPOUND: CCCC[N+]1(C)CCCC1.O=S(=O)([O-])C(F)(F)F [1-butyl-1-methylpyrrolidinium trifluoromethanesulfonate]
RECORDED_VALUE: 455.3

Reported molar heat capacity at constant pressure of CCCCO [butan-1-ol] : 191.4

* * *

- PROTOCOL: molar heat capacity at constant pressure
- SETUP_CONDITIONS: 338.15 K; 101.33 kPa; Liquid; Large sample (1 g) DSC
OBSERVABLE: molar heat capacity at constant pressure (J/K/mol)
Give bare numbers, in J/K/mol.

Example entries begin here.
COMPOUND: CCCCn1cc[n+](C)c1C.O=S(=O)([O-])C(F)(F)F [1-butyl-2,3-dimethylimidazolium trifluoromethanesulfonate]
OBSERVABLE: molar heat capacity at constant pressure
RECORDED_VALUE: 478.7
//
COMPOUND: CCCCCCOS(=O)(=O)[O-].CC[n+]1ccn(C)c1 [3-ethyl-1-methyl-1H-imidazolium hexyl sulfate]
OBSERVABLE: molar heat capacity at constant pressure
RECORDED_VALUE: 537.6
//
COMPOUND: COCC[N+]1(C)CCCC1.O=S(=O)([N-]S(=O)(=O)C(F)(F)F)C(F)(F)F
OBSERVABLE: molar heat capacity at constant pressure
RECORDED_VALUE: 602.6

Hey, quick one: what's molar heat capacity at constant pressure for each of these?
1. CCCC[N+]1(C)CCCC1.O=S(=O)([O-])C(F)(F)F [1-butyl-1-methylpyrrolidinium trifluoromethanesulfonate]
2. CCCCO
3. CCn1cc[n+](C)c1.O=S(=O)([N-]S(=O)(=O)C(F)(F)F)C(F)(F)F

1: 464.6; 2: 208.4; 3: 541.7

* * *

- PROTOCOL: molar heat capacity at constant pressure
- SETUP_CONDITIONS: 333.15 K; 101.33 kPa; Liquid; Large sample (1 g) DSC
Kindly supply the reported molar heat capacity at constant pressure values for the records listed here.
Give bare numbers, in J/K/mol.

COMPOUND: CCCCn1cc[n+](C)c1C.O=S(=O)([O-])C(F)(F)F [1-butyl-2,3-dimethylimidazolium trifluoromethanesulfonate]
RECORDED_VALUE: 475.2

Hey, quick one: what's molar heat capacity at constant pressure for each of these?
1. CCCC[N+]1(C)CCCC1.O=S(=O)([O-])C(F)(F)F [1-butyl-1-methylpyrrolidinium trifluoromethanesulfonate]
2. CCCCCCOS(=O)(=O)[O-].CC[n+]1ccn(C)c1 [3-ethyl-1-methyl-1H-imidazolium hexyl sulfate]

[461.9, 534]

* * *

- PROTOCOL: molar heat capacity at constant pressure
- SETUP_CONDITIONS: 328.15 K; 101.33 kPa; Liquid; Large sample (1 g) DSC
Kindly supply the reported molar heat capacity at constant pressure values for the records listed here.
Give bare numbers, in J/K/mol.

COMPOUND: CCCCn1cc[n+](C)c1C.O=S(=O)([O-])C(F)(F)F [1-butyl-2,3-dimethylimidazolium trifluoromethanesulfonate]
molar heat capacity at constant pressure, J/K/mol: 474.3

Hey, quick one: what's molar heat capacity at constant pressure for each of these?
1. CCCCCCOS(=O)(=O)[O-].CC[n+]1ccn(C)c1 [3-ethyl-1-methyl-1H-imidazolium hexyl sulfate]
2. CCCCO [butan-1-ol]
3. CCn1cc[n+](C)c1.O=S(=O)([N-]S(=O)(=O)C(F)(F)F)C(F)(F)F
4. CCCC[N+]1(C)CCCC1.O=S(=O)([O-])C(F)(F)F [1-butyl-1-methylpyrrolidinium trifluoromethanesulfonate]
5. COCC[N+]1(C)CCCC1.O=S(=O)([N-]S(=O)(=O)C(F)(F)F)C(F)(F)F

1: 531.5; 2: 200.1; 3: 538.9; 4: 460; 5: 596.3

* * *

- PROTOCOL: molar heat capacity at constant pressure
- SETUP_CONDITIONS: 293.15 K; 101.33 kPa; Liquid; Large sample (1 g) DSC
Numbers after ± are expanded uncertainties.
Kindly supply the reported molar heat capacity at constant pressure values for the records listed here.
Write the numeric value and follow it with the unit.

Example entries begin here.
MOLECULE: CCCCCCOS(=O)(=O)[O-].CC[n+]1ccn(C)c1 [3-ethyl-1-methyl-1H-imidazolium hexyl sulfate]
molar heat capacity at constant pressure: 509.1 ± 12 J/K/mol
--
MOLECULE: CCCC[N+]1(C)CCCC1.O=S(=O)([O-])C(F)(F)F [1-butyl-1-methylpyrrolidinium trifluoromethanesulfonate]
molar heat capacity at constant pressure: 439.9 ± 11 J/K/mol
--
MOLECULE: COCC[N+]1(C)CCCC1.O=S(=O)([N-]S(=O)(=O)C(F)(F)F)C(F)(F)F
molar heat capacity at constant pressure: 580.3 ± 14 J/K/mol
--
MOLECULE: CCn1cc[n+](C)c1.O=S(=O)([N-]S(=O)(=O)C(F)(F)F)C(F)(F)F
molar heat capacity at constant pressure: 524.2 ± 13 J/K/mol

Please examine the following record next.
Reported molar heat capacity at constant pressure of CCCCO [butan-1-ol] : 174.1 ± 4.3 J/K/mol

* * *

- PROTOCOL: molar heat capacity at constant pressure
- SETUP_CONDITIONS: 303.15 K; 101.33 kPa; Liquid; Large sample (1 g) DSC
Mark fulfilled only when molar heat capacity at constant pressure stays strictly below 400 J/K/mol. Values equal to the cut-off are not fulfilled.

COMPOUND: CCCCCCOS(=O)(=O)[O-].CC[n+]1ccn(C)c1 [3-ethyl-1-methyl-1H-imidazolium hexyl sulfate]
CLASS_LABEL: not fulfilled
--
COMPOUND: CCCC[N+]1(C)CCCC1.O=S(=O)([O-])C(F)(F)F [1-butyl-1-methylpyrrolidinium trifluoromethanesulfonate]
CLASS_LABEL: not fulfilled
--
COMPOUND: COCC[N+]1(C)CCCC1.O=S(=O)([N-]S(=O)(=O)C(F)(F)F)C(F)(F)F
CLASS_LABEL: not fulfilled
--
COMPOUND: CCCCO [butan-1-ol]
CLASS_LABEL: fulfilled

--- query ---
Given the entry CCn1cc[n+](C)c1.O=S(=O)([N-]S(=O)(=O)C(F)(F)F)C(F)(F)F , would its reported molar heat capacity at constant pressure be below 400 J/K/mol?
not fulfilled

* * *

Kindly supply the reported molar heat capacity at constant pressure values for the records listed here.
- PROTOCOL: molar heat capacity at constant pressure
- SETUP_CONDITIONS: 313.15 K; 101.33 kPa; Liquid; Large sample (1 g) DSC
Numbers after ± are expanded uncertainties.
Write the numeric value and follow it with the unit.

Example entries begin here.
COMPOUND: CCCCO
molar heat capacity at constant pressure: 187.8 ± 4.6 J/K/mol

COMPOUND: CCCC[N+]1(C)CCCC1.O=S(=O)([O-])C(F)(F)F [1-butyl-1-methylpyrrolidinium trifluoromethanesulfonate]
molar heat capacity at constant pressure: 452.2 ± 11 J/K/mol

COMPOUND: COCC[N+]1(C)CCCC1.O=S(=O)([N-]S(=O)(=O)C(F)(F)F)C(F)(F)F
molar heat capacity at constant pressure: 588.9 ± 14 J/K/mol

COMPOUND: CCCCCCOS(=O)(=O)[O-].CC[n+]1ccn(C)c1 [3-ethyl-1-methyl-1H-imidazolium hexyl sulfate]
molar heat capacity at constant pressure: 523.1 ± 13 J/K/mol

Please examine the following record next.
Reported molar heat capacity at constant pressure of CCn1cc[n+](C)c1.O=S(=O)([N-]S(=O)(=O)C(F)(F)F)C(F)(F)F : 532.5 ± 13 J/K/mol

* * *

- PROTOCOL: molar heat capacity at constant pressure
- SETUP_CONDITIONS: 288.15 K; 101.33 kPa; Liquid; Large sample (1 g) DSC
OBSERVABLE: molar heat capacity at constant pressure (J/K/mol)
Answers are plain numbers, in J/K/mol.

Example entries begin here.
COMPOUND: CCn1cc[n+](C)c1.O=S(=O)([N-]S(=O)(=O)C(F)(F)F)C(F)(F)F
RECORDED_VALUE: 522.6

COMPOUND: CCCCCCOS(=O)(=O)[O-].CC[n+]1ccn(C)c1 [3-ethyl-1-methyl-1H-imidazolium hexyl sulfate]
RECORDED_VALUE: 508.3

COMPOUND: COCC[N+]1(C)CCCC1.O=S(=O)([N-]S(=O)(=O)C(F)(F)F)C(F)(F)F
RECORDED_VALUE: 578.9

COMPOUND: CCCCO [butan-1-ol]
RECORDED_VALUE: 171

Please examine the following record next.
Reported molar heat capacity at constant pressure of CCCC[N+]1(C)CCCC1.O=S(=O)([O-])C(F)(F)F [1-butyl-1-methylpyrrolidinium trifluoromethanesulfonate] : 438.3
